measured.on: K-Ras^G12D and hSOS1 (Homo sapiens, UniProt Q07889)
Construct: variant: G12D
Sequence (Q07889 whole entry, looked up, stated change not applied): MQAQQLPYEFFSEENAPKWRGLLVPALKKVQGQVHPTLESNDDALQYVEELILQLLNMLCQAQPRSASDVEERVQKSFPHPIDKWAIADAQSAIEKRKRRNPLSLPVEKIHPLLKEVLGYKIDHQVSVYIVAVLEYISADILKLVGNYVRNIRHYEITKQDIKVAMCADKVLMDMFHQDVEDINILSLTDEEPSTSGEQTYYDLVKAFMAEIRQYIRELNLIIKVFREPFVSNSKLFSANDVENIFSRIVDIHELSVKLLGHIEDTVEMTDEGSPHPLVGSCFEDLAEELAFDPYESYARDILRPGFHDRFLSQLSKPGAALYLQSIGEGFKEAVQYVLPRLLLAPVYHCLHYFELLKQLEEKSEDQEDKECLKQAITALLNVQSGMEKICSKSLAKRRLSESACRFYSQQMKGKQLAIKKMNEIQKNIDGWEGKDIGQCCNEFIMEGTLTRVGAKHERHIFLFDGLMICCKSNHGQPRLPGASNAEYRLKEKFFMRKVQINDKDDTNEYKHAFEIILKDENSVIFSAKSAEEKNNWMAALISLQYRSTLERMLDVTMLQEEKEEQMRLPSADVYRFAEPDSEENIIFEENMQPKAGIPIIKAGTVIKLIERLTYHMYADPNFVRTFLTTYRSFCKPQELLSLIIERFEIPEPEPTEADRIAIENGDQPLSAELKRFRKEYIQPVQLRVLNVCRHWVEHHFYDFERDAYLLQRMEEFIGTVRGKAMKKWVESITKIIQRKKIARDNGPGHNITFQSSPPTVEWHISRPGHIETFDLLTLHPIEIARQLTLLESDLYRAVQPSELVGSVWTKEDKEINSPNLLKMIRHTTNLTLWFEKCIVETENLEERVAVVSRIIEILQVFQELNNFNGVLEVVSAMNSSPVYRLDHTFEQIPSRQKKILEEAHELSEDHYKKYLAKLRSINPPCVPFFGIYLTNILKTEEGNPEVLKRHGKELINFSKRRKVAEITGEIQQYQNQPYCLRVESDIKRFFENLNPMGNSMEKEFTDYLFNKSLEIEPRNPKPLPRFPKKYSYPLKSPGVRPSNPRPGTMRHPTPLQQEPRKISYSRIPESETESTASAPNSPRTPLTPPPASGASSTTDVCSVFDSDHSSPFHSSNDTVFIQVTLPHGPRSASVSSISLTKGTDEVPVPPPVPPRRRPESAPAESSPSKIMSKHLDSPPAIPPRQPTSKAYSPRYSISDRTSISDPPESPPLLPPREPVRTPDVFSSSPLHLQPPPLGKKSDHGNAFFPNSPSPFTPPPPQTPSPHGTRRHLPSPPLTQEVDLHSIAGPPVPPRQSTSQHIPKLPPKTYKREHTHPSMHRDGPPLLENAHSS
assay.comment: K-Ras G12D and hSOS1 binding assay (HTRF)
condition: inhibition of binding of K-Ras G12D to hSOS1, HTRF; read-out: Activity by IC50 (nM), SOS1 inhibitory activity
This listing pairs compounds with measured IC50.

Some solved entries appear below for comparison.
# compound, measured.on, data.value
measured = [
    ("Cc1nc(N[C@H](C)c2cccc(C(F)F)c2F)c2c(n1)N1CCN=C1C(C1=CCN(C(=O)CC#N)CC1)=C2 [Example 123]", "K-Ras^G12D and hSOS1 (Homo sapiens, UniProt Q07889)", "< 10 nM"),
    ("Cc1nc(N[C@H](C)c2cccc(C(F)(F)F)c2)c2cc(N3CCN(C)CC3)c3nncn3c2n1 [Example 3]", "K-Ras^G12D and hSOS1 (Homo sapiens, UniProt Q07889)", "10 to 50 nM"),
]

Form field - read-out: IC50; system: K-Ras^G12D and hSOS1 (Homo sapiens, UniProt Q07889); submitted item: Cc1nc(N[C@H](C)c2cccc(C(F)(F)F)c2)c2c(n1)N1CCN=C1C(c1ccc(=O)n(C)c1)=C2 [Example 65] 10 to 50 nM

I'm curious: which IC50 was measured for CC(=O)N1CC=C(c2cc3c(N[C@H](C)c4cccc(C(F)(F)F)c4)nc(C)nc3n3cnnc23)CC1 [Example 2] tested on K-Ras^G12D and hSOS1 (Homo sapiens, UniProt Q07889)? 10 to 50 nM

# get_value(readout= IC50, system= K-Ras^G12D and hSOS1 (Homo sapiens, UniProt Q07889)) for CCn1cc(C2=Cc3c(N[C@H](C)c4cccc(C(F)(F)F)c4)nc(C)nc3N3CCN=C23)ccc1=O [Example 98] < 10 nM

State its IC50 on K-Ras^G12D and hSOS1 (Homo sapiens, UniProt Q07889): Cc1nc(N[C@H](C)c2cccc(C(F)F)c2F)c2c(n1)N1CCN=C1C(C1=CCN(S(C)(=O)=O)CC1)=C2 [Example 122] < 10 nM

I'm curious: which IC50 was measured for Cc1nc(N[C@H](C)c2cccc(C(F)F)c2F)c2c(n1)N1CCN=C1C(C1=CCN(C(=O)C3(F)CC3)CC1)=C2 [Example 124] tested on K-Ras^G12D and hSOS1 (Homo sapiens, UniProt Q07889)? < 10 nM

Field: IC50 (K-Ras^G12D and hSOS1 (Homo sapiens, UniProt Q07889)). Entry: Cc1nc(N[C@H](C)c2cccc(C(F)F)c2F)c2c(n1)N1CCN=C1C(c1ccc(=O)[nH]c1)=C2 [Example 12] < 10 nM

Checklist item: IC50 tested on K-Ras^G12D and hSOS1 (Homo sapiens, UniProt Q07889), entry Cc1nc(N[C@H](C)c2cccc(C(F)(F)F)c2)c2c(n1)N1CCN=C1C(c1cccn(C)c1=O)=C2 [Example 99] , value? 10 to 50 nM

# get_value(readout= IC50, system= K-Ras^G12D and hSOS1 (Homo sapiens, UniProt Q07889)) for Cc1nc(N[C@H](C)c2cccc(C(F)(F)F)c2)c2cc(N3CCOCC3)c3nncn3c2n1 [Example 4] 10 to 50 nM

* * *

System: NCI-H358 cells
assay.comment: 3D cell proliferation inhibition assay (CellTiter-Glo 3D)
Type: cell-based
condition: Homo sapiens, 192 h; NCI-H358 (KRAS G12C-mutated NSCLC), 3D culture, CTG 3D read on Day 8; read-out: Activity by IC50 (nM), inhibitory activity against NCI-H358 cell proliferation
Text: The cell proliferation inhibition assay was used to determine the abilities of compounds to inhibit the proliferation and growth of SOS1-mediated tumor cells at the in vitro 3D cellular level. The CellTiter-Glo® 3D Cell Viability Assay was employed. • NCI-H358: KRAS G12C-mutated non-small cell lung cancer (NSCLC); • CellTiter-Glo® 3D Cell Viability Assay, Promega, G9683; • RPMI 1640 medium, Gibco, A10491-01; • FBS, Gibco, 10099141C. […]
Overview of reported IC50 across a group of compounds:

Fill in the blank: the reported IC50 of Cc1nc(N[C@H](C)c2cccc(C(F)F)c2F)c2c(n1)N1CCN=C1C(C1=CCN(C(=O)CC#N)CC1)=C2 [Example 123] is ____. 50 to 100 nM

Given the entry Cc1nc(N[C@H](C)c2cccc(C(F)F)c2F)c2c(n1)N1CCN=C1C(C1=CCN(S(C)(=O)=O)CC1)=C2 [Example 122] , report its measured IC50. 50 to 100 nM

Param item = Cc1nc(N[C@H](C)c2cccc(C(F)F)c2F)c2c(n1)N1CCN=C1C(C1(O)CCN(C(=O)C3(F)CC3)CC1)=C2 [Example 125] ; retrieve measured IC50. 50 to 100 nM
